Every entry's value here was drawn from paper PMC8765048.

# Tested on: SARS-CoV-2 variants
# PROTOCOL_NOTES: microbe, parasite or virus in culture
# Assay type: cell-based
# ASSAY_SETUP: Severe acute respiratory syndrome coronavirus 2, Vero C1008
EXPERIMENTAL_ENDPOINT: IC50 (nM)
Provide the reading as a plain figure in nM.

Problem: Consider the compound CCC(CC)COC(=O)[C@H](C)N[P@](=O)(OC[C@H]1O[C@@](C#N)(c2ccc3c(N)ncnn23)[C@H](O)[C@@H]1O)Oc1ccccc1 [Remdesivir, remdesivir, reference compound] and give its measured IC50.
Solution: 2100

With those in mind, consider the next compound.
Problem: Which IC50 is listed for NC(=O)c1cn([C@@H]2O[C@H](CO)[C@@H](O)[C@H]2O)c2ncnc(N)c12 [Sangivamycin, sangivamycin] ?
Solution: 42
